Data provenance: the RNAGym collection of RNA variant scans (doi:10.7554/elife.80360)

B1: HDV Ribozyme (parent)
chain: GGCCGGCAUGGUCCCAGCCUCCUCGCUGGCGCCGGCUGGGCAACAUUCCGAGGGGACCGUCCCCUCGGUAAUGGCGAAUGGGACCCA

Variants of: B1
Experiment: self-cleavage, relative activity (ratio to wild type); higher = more cleavage; co-transcriptional
Hi there, I'd appreciate the recorded self-cleavage for every entry that follows.
Please state the value as a number alone, without comment.

Query :: self-cleavage lookup needed for C32A C48A , thanks.
Result :: 0.116

Query :: Field entry: C49A G74C
Result :: 0.0755

Query :: Field entry: C14G C41G
Result :: 0.525

Query :: Field entry: G1C G5C
Result :: 0

Query :: Field entry: U46C A71C
Result :: 0.772

Query :: Field entry: G52C A71U
Result :: 0.831

Query :: Field entry: U12G A77U
Result :: 0.443
